- measurement-description: Dynamic light scattering of lipid nanoparticles (size, PDI)
- Format: physicochemical
- recorded-conditions: LNP with cationic lipid CL-C
quantity-kind: PDI

Answered cases to consult:
compound	reported-measurement
CCCCCCCCC(CCCCCCCC)OC(=O)CCCCCCC(=O)OCC(COP(=O)(O)OCC[N+](C)(C)C)OC(=O)CCCCCCC(=O)OC(CCCCCCCC)CCCCCCCC (stereo not drawn) [Compound 24]	0.116
CCCCCCCCCC(CCCCCCCCC)C(=O)OCC(COP(=O)(O)OCCN(C)C)OC(=O)C(CCCCCCCCC)CCCCCCCCC (stereo not drawn) [Compound 9]	0.087

1 = CCCCCCCCCCC(CCCCCCCCCC)OC(=O)CCCCCCC(=O)OCC(COP(=O)(O)OCCN(C)C)OC(=O)CCCCCCC(=O)OC(CCCCCCCCCC)CCCCCCCCCC (stereo not drawn) [Compound 19]
2 = CCCCCCCCC(CCCCCCCC)OC(=O)CCCCCCC(=O)OCC(COP(=O)(O)OCCN(C)CCO)OC(=O)CCCCCCC(=O)OC(CCCCCCCC)CCCCCCCC (stereo not drawn) [Compound 25]
// pick min by PDI: 1 , 2 Answer with the label corresponding to your selection.
1

Cited source: patent US20260224688A1
